Tested on: WHIM2 (cells of a triple-negative basal-like breast cancer xenograft)
measurement_protocol: cell viability (% of vehicle); higher = less cytotoxic
conditions_used: 10 µM; 72 h
We label by threshold. Values of cell viability strictly beneath 100 are 1. Values of 100 and up are 0.

Solved entries (count: 8):
COc1ccc(CC2c3cc(OC)c(OC)cc3CC[N+]2(C)CCC(=O)OCCCCCOC(=O)CC[N+]2(C)CCc3cc(OC)c(OC)cc3C2Cc2ccc(OC)c(OC)c2)cc1OC.O=S(=O)([O-])c1ccccc1.O=S(=O)([O-])c1ccccc1 (stereo not drawn) [Cisatracurium Besylate]: 1
Cc1cccc(Nc2ccccc2C(=O)O)c1C [Mefenamic Acid]: 0
Cc1ccc(C(=O)N(CCCN)C(c2nc3cc(Cl)ccc3c(=O)n2Cc2ccccc2)C(C)C)cc1 (stereo not drawn): 1
CCOc1cc(N)c(Cl)cc1C(=O)NCC1CN(Cc2ccc(F)cc2)CCO1.O=C(O)CC(O)(CC(=O)O)C(=O)O (stereo not drawn) [Mosapride Citrate]: 1
CC(=O)OC1(C(C)=O)CCC2C3CCC4=CC(=O)CCC4=C3C(c3ccc(N(C)C)cc3)CC21C (stereo not drawn) [Ulipristal acetate]: 0
CS(=O)(=O)c1ccc(C(=O)Nc2ccc(Cl)c(-c3ccccn3)c2)c(Cl)c1 [GDC-0449 (Vismodegib)]: 0
CCCCc1oc2ccccc2c1C(=O)c1cc(I)c(OCCN(CC)CC)c(I)c1.Cl [Amiodarone HCl]: 1
COC(=O)N=NC=C1C=[N+]([O-])c2ccccc2N1O [Carbadox]: 1

# input Determine if O=C(Nc1c(Cl)cncc1Cl)c1ccc(OC(F)F)c(OCC2CC2)c1 [Roflumilast] shows cell viability strictly lower than 100.
# output 0

# input Determine if `COc1cc2c(Oc3ccc(NC(=O)C4(C(=O)Nc5ccc(F)cc5)CC4)cc3F)ccnc2cc1OCCCN1CCOCC1` shows cell viability strictly lower than 100.
# output 1

---

Test system: HCI03 (cells of an ER-positive luminal breast cancer xenograft)
measurement_protocol: cell viability (% of vehicle); higher = less cytotoxic
conditions_used: 10 µM; 72 h
measured_metric: cell viability
Enter a number only.

Study these solved cases before continuing.
Cc1ncc([N+](=O)[O-])n1CCO [Metronidazole]: 135
COC1C(O)CC(=O)OC(C)CC=CC=CC(OC2CCC(N(C)C)C(C)O2)C(C)CC(CC=O)C1OC1OC(C)C(OC2CC(C)(O)C(O)C(C)O2)C(N(C)C)C1O (stereo unspecified) [Spiramycin]: 125

# input If you can, please state the reported cell viability value of O=C(CCCN1CCN(c2ccccn2)CC1)c1ccc(F)cc1 [Azaperone] .
# output 114

# input If you can, please state the reported cell viability value of NCC1OC(OC2C(CO)OC(OC3C(O)C(N)CC(N)C3OC3OC(CO)C(O)C(O)C3N)C2O)C(N)C(O)C1O.O=S(=O)(O)O (stereo unspecified) [Paromomycin Sulfate] .
# output 133

# input If you can, please state the reported cell viability value of CCCCCCCCCC(=O)NC(Cc1c[nH]c2ccccc12)C(=O)NC(CC(N)=O)C(=O)NC(CC(=O)O)C(=O)NC1C(=O)NCC(=O)NC(CCCN)C(=O)NC(CC(=O)O)C(=O)NC(C)C(=O)NC(CC(=O)O)C(=O)NCC(=O)NC(CO)C(=O)NC(C(C)CC(=O)O)C(=O)NC(CC(=O)c2ccccc2N)C(=O)OC1C (stereo unspecified) [Daptomycin] .
# output 141

# input If you can, please state the reported cell viability value of N#CC(=C1SCC(c2ccc(Cl)cc2Cl)S1)n1ccnc1 (stereo unspecified) [Luliconazole] .
# output 108

---

Test system: HCI01 (cells of a triple-negative basal-like breast cancer xenograft)
measurement_protocol: cell viability (% of vehicle); higher = less cytotoxic
conditions_used: 10 µM; 72 h
# cell viability annotations
Enter a number only.

Study these solved cases before continuing.
Cl.Cl.Clc1ccc(Nc2nnc(Cc3ccncc3)c3ccccc23)cc1 [Vatalanib (PTK787) 2HCl]: 136
NC(CC(=O)N1CCn2c(nnc2C(F)(F)F)C1)Cc1cc(F)c(F)cc1F.O.O=P(=O)OO.[HH] (configuration not stated) [Sitagliptin phosphate monohydrate]: 134
CS(=O)(=O)c1ccc(C2=C(c3ccccc3)C(=O)OC2)cc1 [Rofecoxib]: 127

# input If you can, please state the reported cell viability value of CCCN(CCC)C(=O)C1=Cc2ccc(-c3ccc(C(=O)N4CCCC4)cc3)cc2NC(=N)C1 [Motolimod (VTX-2337)] .
# output 100

# input If you can, please state the reported cell viability value of CC1(C)SC2C(NC(=O)C(NC(=O)N3CCNC3=O)c3ccccc3)C(=O)N2C1C(=O)[O-].[Na+] (configuration not stated) [Azlocillin sodium salt] .
# output 97.6

# input If you can, please state the reported cell viability value of CCC(CO)NCCNC(CC)CO.Cl.Cl (configuration not stated) [Ethambutol HCl] .
# output 98.6

# input If you can, please state the reported cell viability value of O=C1CCc2ccc(OCCCCN3CCN(c4cccc(Cl)c4Cl)CC3)cc2N1 [Aripiprazole] .
# output 105

---

Test system: HCI03
measurement_protocol: cell viability (% of vehicle); higher = less cytotoxic
conditions_used: 10 µM; 72 h
We label by threshold. Values of cell viability strictly beneath 100 are class 1. Values of 100 and up are class 0.

COc1cc2c(cc1OC)CN(CCc1ccc(NC(=O)c3cccc4c(=O)c5cccc(OC)c5[nH]c34)cc1)CC2: class 1
CC(C)(C)c1ccc(C(O)CCCN2CCC(C(O)(c3ccccc3)c3ccccc3)CC2)cc1 (stereo unspecified): class 1
COc1ccccc1OCC(O)CO (stereo unspecified): class 0
CC(=O)OC1(C(C)=O)CCC2C3CC(C)C4=CC(=O)CCC4(C)C3CCC21C (stereo unspecified) [Medroxyprogesterone acetate]: class 0
COc1nc(N)nc2c1ncn2C1OC(CO)C(O)C1O (stereo unspecified): class 0

Please turn your attention to the following entry.
# input Determine if `COc1cc(OC)c(C=CS(=O)(=O)Cc2ccc(OC)c(NCC(=O)[O-])c2)c(OC)c1.[Na+]` shows cell viability strictly lower than 100.
# output class 0

---

System: HCI03
measurement_protocol: cell viability (% of vehicle); higher = less cytotoxic
conditions_used: 10 µM; 72 h
# cell viability annotations
Enter a number only.

CCC1(O)CC2CN(CCc3c([nH]c4ccccc34)C(C(=O)OC)(c3cc4c(cc3OC)N(C)C3C(O)(C(=O)OC)C(OC(C)=O)C5(CC)C=CCN6CCC43C65)C2)C1.O=S(=O)(O)O (stereo unspecified) [Vinblastine sulfate]: 88.5
O=C(C1CCCCC1)N1CC(=O)N2CCc3ccccc3C2C1 (stereo unspecified) [Praziquantel]: 132
COc1c(C)c2c(c(O)c1CC=C(C)CCC(=O)O)C(=O)OC2 [Mycophenolic acid]: 93.3

# input If you can, please state the reported cell viability value of `COc1ncc(-c2ccc3nccc(-c4ccnnc4)c3c2)cc1NS(=O)(=O)c1ccc(F)cc1F` .
# output 65.6

# input If you can, please state the reported cell viability value of CNCC(O)c1ccc(O)c(O)c1.Cl (stereo unspecified) [Epinephrine HCl] .
# output 112

---

System: HCI01
measurement_protocol: cell viability (% of vehicle); higher = less cytotoxic
conditions_used: 1 µM; 72 h
We label by threshold. Values of cell viability strictly beneath 100 are y. Values of 100 and up are n.

Solved entries (count: 3):
COc1cc(Nc2ncc(F)c(Nc3ccc4c(n3)N(COP(=O)(O)O)C(=O)C(C)(C)O4)n2)cc(OC)c1OC [Fostamatinib (R788)]: n
Cl.Cl.O=C1c2c(O)ccc(O)c2C(=O)c2c(NCCNCCO)ccc(NCCNCCO)c21 [Mitoxantrone HCl]: n
CC(C)N=c1cc2n(-c3ccc(Cl)cc3)c3ccccc3nc-2cc1Nc1ccc(Cl)cc1: y

# input Determine if CC1(C)CCC(c2ccc(Cl)cc2)=C(CN2CCN(c3ccc(C(=O)NS(=O)(=O)c4ccc(NC(CCN5CCOCC5)CSc5ccccc5)c(S(=O)(=O)C(F)(F)F)c4)cc3)CC2)C1 (stereo unspecified) shows cell viability strictly lower than 100.
# output y

---

# cell viability annotations
Tested on: WHIM30 (cells of a triple-negative basal-like breast cancer xenograft)
measurement_protocol: cell viability (% of vehicle); higher = less cytotoxic
conditions_used: 1 µM; 72 h

Study these solved cases before continuing.
CN1CCC(COc2cnc(-c3cccc(Cn4nc(-c5cccc(C#N)c5)ccc4=O)c3)nc2)CC1: 79.6
CCCCCCCCOc1ccccc1C(=O)Nc1ccc(C(=O)OCC[N+](C)(CC)CC)cc1.[Br-] [Otilonium Bromide]: 90.7

# input If you can, please state the reported cell viability value of `CCN1CCN(Cc2ccc(Nc3ncc(F)c(-c4cc(F)c5nc(C)n(C(C)C)c5c4)n3)nc2)CC1.CS(=O)(=O)O` .
# output 52.6

# input If you can, please state the reported cell viability value of CCc1c(Cl)c(O)c(Cl)c(O)c1C(=O)OC1C(C)OC(OCC2=CC=CCC(O)C(C)=CC(CC)C(OC3OC(C)(C)C(OC(=O)C(C)C)C(O)C3O)C(C)=CC(C)=CCC(C(C)O)OC2=O)C(OC)C1O (stereo unspecified) .
# output 102

# input If you can, please state the reported cell viability value of Clc1ccc(COC(Cn2ccnc2)c2ccc(Cl)cc2Cl)cc1.O=[N+]([O-])O (stereo unspecified) [Econazole nitrate] .
# output 92.7

# input If you can, please state the reported cell viability value of `C=C(c1ccc(C(=O)O)cc1)c1cc2c(cc1C)C(C)(C)CCC2(C)C` .
# output 142

Ref: the supplement of paper PMC6992640
